# TARGET_DESC: CSF1R (FMS) (Homo sapiens, UniProt P07333)
# Sequence (P07333 20-972): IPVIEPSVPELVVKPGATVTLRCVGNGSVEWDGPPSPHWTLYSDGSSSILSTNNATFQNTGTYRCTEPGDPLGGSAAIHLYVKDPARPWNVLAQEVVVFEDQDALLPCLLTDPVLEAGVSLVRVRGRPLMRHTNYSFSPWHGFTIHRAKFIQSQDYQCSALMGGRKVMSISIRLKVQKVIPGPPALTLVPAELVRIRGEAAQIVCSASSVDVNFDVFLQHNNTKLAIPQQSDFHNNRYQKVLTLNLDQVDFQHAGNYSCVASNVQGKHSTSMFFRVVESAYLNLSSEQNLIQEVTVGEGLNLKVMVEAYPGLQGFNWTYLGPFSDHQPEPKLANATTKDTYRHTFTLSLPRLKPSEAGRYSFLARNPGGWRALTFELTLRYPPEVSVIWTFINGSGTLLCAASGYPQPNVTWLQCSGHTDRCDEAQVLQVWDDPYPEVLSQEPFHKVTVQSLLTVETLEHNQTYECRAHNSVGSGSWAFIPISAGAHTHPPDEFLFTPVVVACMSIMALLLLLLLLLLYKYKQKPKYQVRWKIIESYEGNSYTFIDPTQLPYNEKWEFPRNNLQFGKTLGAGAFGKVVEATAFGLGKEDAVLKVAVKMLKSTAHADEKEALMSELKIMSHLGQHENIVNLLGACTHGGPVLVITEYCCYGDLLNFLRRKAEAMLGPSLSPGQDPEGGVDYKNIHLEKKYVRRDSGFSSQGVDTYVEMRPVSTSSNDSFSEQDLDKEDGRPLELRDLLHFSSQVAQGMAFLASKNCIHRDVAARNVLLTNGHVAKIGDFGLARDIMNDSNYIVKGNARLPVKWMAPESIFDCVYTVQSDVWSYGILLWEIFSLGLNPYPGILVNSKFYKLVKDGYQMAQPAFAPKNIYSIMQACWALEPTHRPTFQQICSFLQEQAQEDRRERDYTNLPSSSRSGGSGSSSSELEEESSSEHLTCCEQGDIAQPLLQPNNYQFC
Quick list: IC50 per entry.

Consider the reported IC50 for these compounds:
CC(C)(C)OC(=O)[C@@H]1CC(NCc2cccc(-c3cnc(N)c(NCc4c(Cl)cccc4Cl)n3)c2)CCN1 (stereo partly shown) [Example 47, di-formate] :: < 100 nM
CC(C)C[C@H](NCc1ccc(-c2cnc(N)c(NCc3c(F)cccc3F)n2)cc1)C(=O)OC(C)(C)C :: 1000 to 5000 nM
Nc1ncc(-c2ccc(C(=O)N3CCNC(C(=O)OC4CCCC4)C3)cc2)nc1NCc1c(Cl)cccc1Cl (stereo not shown) :: 100 to 300 nM

# query: IC50 | item `Nc1ncc(-c2ccc(CN3CCN[C@@H](C(=O)OC4CCCC4)C3)cc2)nc1NCc1c(Cl)cccc1Cl` | system: CSF1R (FMS) (Homo sapiens, UniProt P07333)
300 to 1000 nM

Any idea what IC50 came out for CC(C)(C)OC(=O)[C@H]1CC(NC(=O)c2cccc(-c3cnc(N)c(NCc4c(Cl)cccc4Cl)n3)c2)CCN1 (stereo partly shown) on CSF1R (FMS) (Homo sapiens, UniProt P07333)?
100 to 300 nM

IC50 of Nc1ncc(-c2cccc(C(=O)NC3CCN[C@@H](C(=O)OC4CCCC4)C3)c2)nc1NCc1c(Cl)cccc1Cl (stereo partly shown) on CSF1R (FMS) (Homo sapiens, UniProt P07333)?
100 to 300 nM

Request - read-out IC50 | tested on CSF1R (FMS) (Homo sapiens, UniProt P07333) | compound Nc1ncc(-c2ccc(C(=O)NC3CCN[C@@H](C(=O)OC4CCCC4)C3)cc2)nc1NCc1c(Cl)cccc1Cl (stereo partly shown)
< 100 nM

###

# Test system: MCP-1
# EXPERIMENT: MCSF-stimulation of human whole blood, MCP-1 levels by sandwich ELISA
# Format: cell-based
# CONDITION_DESCRIPTION: inhibitor 2 hours before MCSF 50 ng/ml, 22 hrs, MCP-1 in cell-free supernatants, read-out: Inhibitor activity versus MCP-1
Below: a set of entries, each annotated with reported IC50.

CCc1cc(-c2cnc(N)c(NCc3c(Cl)cccc3Cl)n2)ccc1CN1CCNC(C(=O)OC2CCCC2)C1 (stereo not shown) :: < 100 nM
Nc1ncc(-c2ccc(CN3CCN[C@H](C(=O)OC4CCCC4)C3)cc2)nc1NCc1c(Cl)cccc1Cl :: < 100 nM
CC(C)(C)OC[C@H](NCc1cccc(-c2cnc(N)c(NCc3c(Cl)cccc3Cl)n2)c1)C(=O)OC1CCCC1 :: > 5000 nM

Moving on to another compound below.
Entry Nc1ncc(-c2cccc(CNC3CCN[C@@H](C(=O)OC4CCCC4)C3)c2)nc1NCc1c(Cl)cccc1Cl (stereo partly shown) , system MCP-1: what IC50 was measured?
100 to 300 nM

###

# TARGET_DESC: CSF1R (FMS) (Homo sapiens, UniProt P07333)
# Construct: purchased Invitrogen (Paisley, UK)
# EXPERIMENT: CSF1R (FMS) kinase activity, Z'-LYTE biochemical assay (Invitrogen)
# CONDITION_DESCRIPTION: ATP at or close to Km, 60 minute reaction at room temperature, read-out: Inhibitor activity versus CSF-1
MEASUREMENT_KIND: IC50

Example entries and their recorded answers appear below.
CN(C(=O)c1ccc(-c2cnc(N)c(NCc3c(Cl)cccc3Cl)n2)cc1)C1CCN[C@@H](C(=O)OC(C)(C)C)C1 (stereo partly drawn) :: < 0.1 µM
Nc1ncc(-c2cnn(CCNC3CCN[C@H](C(=O)OC4CCCC4)C3)c2)nc1NCc1c(Cl)cccc1Cl (stereo partly drawn) [Example 56, di-formate] :: 0.1 to 0.3 µM

We next turn to a different compound, shown below.
Record request: IC50 value, item `CC(C)C[C@H](NCc1ccc(-c2cnc(N)c(NCc3c(F)cccc3F)n2)cc1)C(=O)OC1CCCC1`
> 5 µM
